Catalogue of IC50 values
- assayedSystem: human 5-LOX (Homo sapiens, UniProt P09917)
- Construct: purchased Cayman 60402; host or cells: insect cells (lysate)
- Sequence (P09917 whole entry): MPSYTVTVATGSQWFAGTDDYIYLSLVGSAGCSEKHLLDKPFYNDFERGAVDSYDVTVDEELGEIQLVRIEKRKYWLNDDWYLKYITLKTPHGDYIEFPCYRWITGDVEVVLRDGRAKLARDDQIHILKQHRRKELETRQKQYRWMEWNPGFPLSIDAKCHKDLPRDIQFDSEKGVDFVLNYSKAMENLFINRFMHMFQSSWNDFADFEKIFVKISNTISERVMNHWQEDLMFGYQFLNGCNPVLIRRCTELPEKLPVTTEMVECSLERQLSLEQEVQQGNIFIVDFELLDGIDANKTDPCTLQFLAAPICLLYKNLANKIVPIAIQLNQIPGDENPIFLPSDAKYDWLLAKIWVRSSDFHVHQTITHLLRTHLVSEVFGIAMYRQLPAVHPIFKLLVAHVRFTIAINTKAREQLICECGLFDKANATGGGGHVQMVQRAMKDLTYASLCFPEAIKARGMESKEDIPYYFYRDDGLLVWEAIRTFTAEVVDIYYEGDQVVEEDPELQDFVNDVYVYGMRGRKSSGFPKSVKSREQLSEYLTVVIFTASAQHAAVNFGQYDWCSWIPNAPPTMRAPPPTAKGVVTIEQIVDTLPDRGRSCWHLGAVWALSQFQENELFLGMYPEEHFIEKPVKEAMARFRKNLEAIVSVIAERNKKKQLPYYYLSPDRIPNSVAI
- assayRemarks: 5-LOX enzyme activity, fluorescence method (5-HPETE, H2DCFDA)
- Assay type: biochemical
- condition: read-out: 5-LO (IC50)

Past entries and their recorded results:
Form field IC50 for item CN(C)c1nc2cc(N)ccc2n1CCOc1ccc(Cl)cc1 on human 5-LOX (Homo sapiens, UniProt P09917): < 1000 nM

Form field IC50 for item Cn1ccc(Nc2ccc3nc(NCc4ccc(Oc5ncc(Cl)cn5)cc4)[nH]c3c2F)n1 on human 5-LOX (Homo sapiens, UniProt P09917): < 1000 nM

Form field IC50 for item COc1nc(Oc2ccc(CNc3nc4ccc(NC5COC5)cc4n3C)cc2)ncc1Cl on human 5-LOX (Homo sapiens, UniProt P09917): < 1000 nM

Form field IC50 for item Nc1ccc2c(c1)nc(N)n2CCc1ccc(F)cc1 on human 5-LOX (Homo sapiens, UniProt P09917): 1000 to 10000 nM

Form field IC50 for item CN(C)C(=O)c1cnc(Oc2ccc(CNc3nc4ccc(N)cc4n3C)cc2)nc1 on human 5-LOX (Homo sapiens, UniProt P09917): < 1000 nM

Form field IC50 for item Nc1ccc2[nH]c(N3CCC(Oc4ccc(OC(F)(F)F)cc4)C3)nc2c1 (centres unmarked) on human 5-LOX (Homo sapiens, UniProt P09917): < 1000 nM

Form field IC50 for item CN(C)c1nc2cc(N)ccc2n1CCOc1ccc(OC(F)(F)F)cc1 on human 5-LOX (Homo sapiens, UniProt P09917): 1000 to 10000 nM

Form field IC50 for item Nc1ccc2nc(N)n(Cc3ccc(Oc4ccc(Cl)cc4)nc3)c2c1 on human 5-LOX (Homo sapiens, UniProt P09917): < 1000 nM

Form field IC50 for item COC(=O)c1ccc(CNc2ccc3nc(N(C)C)[nH]c3c2)cc1 on human 5-LOX (Homo sapiens, UniProt P09917): < 1000 nM

Form field IC50 for item Nc1ccc2[nH]c(NCc3ccc(-c4ccc(Cl)cn4)cc3)nc2c1 on human 5-LOX (Homo sapiens, UniProt P09917): < 1000 nM

---
Form field IC50 for item Cn1c(NCc2ccc(Oc3cc(Cl)ncn3)cc2)nc2ccc(N)cc21 on human 5-LOX (Homo sapiens, UniProt P09917): < 1000 nM

Form field IC50 for item CC(C)(C)Oc1ccc(CNc2nc3ccc(N)cc3[nH]2)cc1 on human 5-LOX (Homo sapiens, UniProt P09917): < 1000 nM

Form field IC50 for item Cc1cc(Nc2ccc3nc(NCc4ccc(Oc5nccc(Cl)n5)cc4)n(C)c3c2)n[nH]1 on human 5-LOX (Homo sapiens, UniProt P09917): < 1000 nM

Form field IC50 for item Cn1c(NCc2ccc(Oc3ccc(C(F)(F)F)cn3)cc2)nc2ccc(N)cc21 on human 5-LOX (Homo sapiens, UniProt P09917): < 1000 nM

Form field IC50 for item Cc1cc(Oc2ccc(Cl)cn2)ccc1CNc1nc2ccc(NC3COC3)cc2n1C on human 5-LOX (Homo sapiens, UniProt P09917): < 1000 nM

Form field IC50 for item Cn1c(NCc2ccc(Oc3ccc(Cl)nc3)cc2)nc2ccc(NC3COC3)cc21 on human 5-LOX (Homo sapiens, UniProt P09917): < 1000 nM

Form field IC50 for item CCn1c(NCc2ccc(Oc3ncc(Cl)cn3)cc2)nc2ccc(Nc3cc(C(F)(F)F)n(C)n3)cc21 [Compound 510] on human 5-LOX (Homo sapiens, UniProt P09917): > 10000 nM

Form field IC50 for item Nc1ccc2nc(N3CCC3)n(CCOc3ccc(OC(F)(F)F)cc3)c2c1 on human 5-LOX (Homo sapiens, UniProt P09917): < 1000 nM

Form field IC50 for item FC(F)(F)Oc1ccc(OCCn2c(N3CCCC3)nc3ccc(N4CCC4)cc32)cc1 on human 5-LOX (Homo sapiens, UniProt P09917): < 1000 nM
